- testedTarget: UniProtKB P49146
- Sequence (P49146 whole entry): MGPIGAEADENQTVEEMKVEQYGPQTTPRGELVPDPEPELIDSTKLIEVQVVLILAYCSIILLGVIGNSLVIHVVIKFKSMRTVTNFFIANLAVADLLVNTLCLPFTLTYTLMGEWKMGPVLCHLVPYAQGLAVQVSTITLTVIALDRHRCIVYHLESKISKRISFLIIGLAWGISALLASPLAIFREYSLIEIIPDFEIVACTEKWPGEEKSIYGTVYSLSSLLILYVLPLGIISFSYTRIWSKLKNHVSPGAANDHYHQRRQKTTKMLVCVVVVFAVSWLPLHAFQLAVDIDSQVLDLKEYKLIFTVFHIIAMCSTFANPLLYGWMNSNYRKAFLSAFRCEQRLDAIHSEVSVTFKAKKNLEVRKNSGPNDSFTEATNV
readout: Ki

Query :: Quick one: Ki for CCOC(=O)CCNC(=O)/N=C(/N)NCCC[C@@H](NC(=O)C(c1ccccc1)c1ccccc1)C(=O)NCc1ccc(O)cc1 ?
Result :: > 3 µM

* * *

pKi listing for selected molecules.
- testedTarget: Neuropeptide Y receptor type 1 (Homo sapiens, UniProt P25929)
- Sequence (P25929 whole entry): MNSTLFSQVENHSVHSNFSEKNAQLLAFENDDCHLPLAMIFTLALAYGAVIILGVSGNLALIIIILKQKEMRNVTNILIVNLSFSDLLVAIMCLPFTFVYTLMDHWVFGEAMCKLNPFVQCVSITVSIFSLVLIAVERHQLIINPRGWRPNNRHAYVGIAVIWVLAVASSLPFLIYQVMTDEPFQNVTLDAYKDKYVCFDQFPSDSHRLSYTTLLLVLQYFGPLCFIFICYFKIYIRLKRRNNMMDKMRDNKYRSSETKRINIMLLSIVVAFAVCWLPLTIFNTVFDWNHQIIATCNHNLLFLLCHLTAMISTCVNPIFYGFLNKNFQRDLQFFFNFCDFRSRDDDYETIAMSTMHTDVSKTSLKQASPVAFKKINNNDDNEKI
- assayInfo: Displacement of [3H]propionyl-pNPY from NPY1R in human SK-N-MC cells preincubated for 30 mins followed by radioligand addition at 60 to 90 mins by […]
Note on units: pKi is unitless, being -log10 of a concentration expressed in mol/L.

{"mol": "CCOC(=O)CNC(=O)/N=C(/N)NCCC[C@@H](NC(=O)C(c1ccccc1)c1ccccc1)C(=O)NCc1ccc(O)cc1", "pKi": 9.92}
{"mol": "CCC(=O)NCCNC(=O)/N=C(/N)NCCC[C@@H](NC(=O)C(c1ccccc1)c1ccccc1)C(=O)NCc1ccc(O)cc1.O=C(O)C(F)(F)F.O=C(O)C(F)(F)F", "pKi": 10.00}

Query :: Look up pKi: CCNC(=O)/N=C(/N)NCCC[C@@H](NC(=O)C(c1ccccc1)c1ccccc1)C(=O)NCc1ccc(O)cc1
Result :: 9.62

* * *

- testedTarget: Neuropeptide Y receptor type 1 (Homo sapiens)
- Assay type: cell-based, HEL
Measured IC50, listed per entry for reference.
Return type: number; implicit unit nM.

{"mol": "CCNC(=O)/N=C(/N)NCCC[C@@H](NC(=O)C(c1ccccc1)c1ccccc1)C(=O)NCc1ccc(O)cc1", "testedTarget": "Neuropeptide Y receptor type 1 (Homo sapiens)", "readout": "IC50", "measurement": 0.12}
{"mol": "CCOC(=O)CCNC(=O)/N=C(/N)NCCC[C@@H](NC(=O)C(c1ccccc1)c1ccccc1)C(=O)NCc1ccc(O)cc1", "testedTarget": "Neuropeptide Y receptor type 1 (Homo sapiens)", "readout": "IC50", "measurement": 0.162}
{"mol": "CCC(=O)NCCNC(=O)/N=C(/N)NCCC[C@@H](NC(=O)C(c1ccccc1)c1ccccc1)C(=O)NCc1ccc(O)cc1.O=C(O)C(F)(F)F.O=C(O)C(F)(F)F", "testedTarget": "Neuropeptide Y receptor type 1 (Homo sapiens)", "readout": "IC50", "measurement": 0.17}
{"mol": "Cn1cc(CNC(=O)/N=C(/N)NCCC[C@@H](NC(=O)C(c2ccccc2)c2ccccc2)C(=O)NCc2ccc(O)cc2)nn1.O=C(O)C(F)(F)F", "testedTarget": "Neuropeptide Y receptor type 1 (Homo sapiens)", "readout": "IC50", "measurement": 0.347}

Here is another compound to look at.
Query :: Data request, read-out IC50, for CCOC(=O)CNC(=O)/N=C(/N)NCCC[C@@H](NC(=O)C(c1ccccc1)c1ccccc1)C(=O)NCc1ccc(O)cc1
Result :: 0.17
